src = patent US20250136687A1

Biological target: human CD3 on the cell surface (Jurkat cells, expanded human T cells, Jurkat-Lucia NFAT cells, human PBMC) (human, UniProt P07766 23-207; P04234 22-171; P09693 23-182)
Sequence (P07766 23-207, chain 1 of 3): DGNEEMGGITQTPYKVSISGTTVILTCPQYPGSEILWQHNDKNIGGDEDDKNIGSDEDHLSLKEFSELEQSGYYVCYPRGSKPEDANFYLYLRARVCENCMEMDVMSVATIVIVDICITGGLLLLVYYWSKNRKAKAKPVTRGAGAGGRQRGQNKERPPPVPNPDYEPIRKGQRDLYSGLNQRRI
Sequence (P04234 22-171, chain 2 of 3): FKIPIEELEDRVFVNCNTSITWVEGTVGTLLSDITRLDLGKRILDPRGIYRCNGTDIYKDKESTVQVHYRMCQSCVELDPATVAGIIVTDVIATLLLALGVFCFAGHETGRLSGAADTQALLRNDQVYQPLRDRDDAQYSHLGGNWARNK
Sequence (P09693 23-182, chain 3 of 3): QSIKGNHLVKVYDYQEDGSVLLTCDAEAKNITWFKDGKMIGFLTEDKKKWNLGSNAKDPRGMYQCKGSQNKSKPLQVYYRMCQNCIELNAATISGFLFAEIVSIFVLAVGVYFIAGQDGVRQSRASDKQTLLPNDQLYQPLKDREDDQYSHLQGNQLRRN
Assay: cell-based or functional assay
RESULT TYPE: EC50 (nM), luciferase reporter, Jurkat-Lucia NFAT cells

Dear colleague, I am looking for the recorded EC50 (nM), luciferase reporter, Jurkat-Lucia NFAT cells of the following binder: 5-7.13 human-murine chimeric antibody (antibody, human IgG1, kappa, V domains shown, Human IgG1 chimera) VH: QVQLQQPGTELVKPGASVKLSCKASGYTFTSYWVHWVKQRPGQGLEWIGNINPSDGVTNYNEKFKSRATLTVDKSSSTAYMQLSSLTSEDSAVYYCTRDAYGQYYFDDWGQGTTLTVSS VL: DIVMSQSPSSLVVSAGEKVTMSCKSSQSLLNSRTRKNYLAWYQQKPGQSPKLLIYWASVRDSGVPDRFTGSGSGTDFTLTISNVQAEDLAVYYCIQSYYLRTFGGGTILEIKR
0.7 nM

Which EC50 (nM), luciferase reporter, Jurkat-Lucia NFAT cells is listed for 5-40.21 human-murine chimeric antibody (antibody, human IgG1, kappa, V domains shown, Human IgG1 chimera) VH: QVQLQQPGSELVRPGASVKLSCKASGYTFTSYWMHWVKQRPGQGLEWIGNTYPGSGSTNYDEKFKSKATLTVDSSSSTAYMQLSSLTSEDSAVYYCTRDRYGVYYFDYWGQGTTLTVSS VL: DIVMSQSPSSLAVSAGEKVTMSCKSSQSLLNSRTRKNYLAWYQQKPGQSPKLLIYWASTRESGVPDRFSGSGSGTDFTLTISSVQAEDLAVYYCTQSYNLRTFGGGTKLEIKR ?
4.79 nM

State the recorded EC50 (nM), luciferase reporter, Jurkat-Lucia NFAT cells for this entry: 6-35.22 human-murine chimeric antibody (antibody, human IgG1, kappa, V domains shown, Human IgG1 chimera) VH: EVKLVESGGGLVQPGASLSLSCAASGFTFTDYYMSWVRQPPGKALEWLAMSRNKAKGHTIEYSSSVKGRFTISRDNSQSILYLQMNALRAEDSATYYCARDTYESYDGYFDVWGAGTTVIVSS VL: DIVMSQSPSSLAVSAGETVTMSCKSSQSLFNSRSRKNYLAWYQQKPGQTPKLLIYWASIRESGVPDRFTGSGSGTDFTLTISSVQAEDLAVYYCKQSYYLYTFGSGTKLEIKR
0.82 nM

Now examine the next entry.
Please look up its EC50 (nM), luciferase reporter, Jurkat-Lucia NFAT cells: 40G5c-hIgG1 (antibody, V domains shown) VH: EVQLVQSGAEVKKPGASVKVSCKASGYTFTNYYIHWVRQAPGQGLEWIGWIYPGDGNTKYNEKFKGRATLTADTSTSTAYLELSSLRSEDTAVYYCARDSYSNYYFDYWGQGTLVTVSS VL: DIVMTQSPDSLAVSLGERATINCKSSQSLLNSRTRKNYLAWYQQKPGQPPKLLIYWASTRESGVPDRFSGSGSGTDFTLTISSLQAEDVAVYYCTQSFILRTFGQGTKVEIKR
5.97 nM
